src = ChEMBL document CHEMBL1125222

- studyTarget: Adenosine receptor A1 (Rattus norvegicus)
- Sequence (P25099 whole entry): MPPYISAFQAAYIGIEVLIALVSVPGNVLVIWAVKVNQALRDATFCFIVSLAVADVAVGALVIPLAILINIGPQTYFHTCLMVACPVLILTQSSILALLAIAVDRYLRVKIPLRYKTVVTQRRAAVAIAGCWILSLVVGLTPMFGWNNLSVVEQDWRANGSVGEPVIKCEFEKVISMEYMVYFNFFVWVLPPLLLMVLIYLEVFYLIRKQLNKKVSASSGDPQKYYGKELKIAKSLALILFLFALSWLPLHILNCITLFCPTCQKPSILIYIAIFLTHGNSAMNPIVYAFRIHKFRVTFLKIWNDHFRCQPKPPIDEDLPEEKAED
- measurementNotes: Inhibition of [3H]- (R)-P1A binding to adenosine A1 receptor
valueKind: pKi
Answers are plain numbers, as −log10 of the molar value.

Task: Provide pKi value for the following molecule: Nc1nc(Cl)nc2c1ncn2[C@@H]1O[C@H](CO)[C@@H](O)[C@H]1O
Output: 8.17
